This collection of values is drawn from PubChem BioAssay (NCI).

Assay: NCI Yeast Anticancer Drug Screen. Data for the bub3 strain (AID 167)
Conditions: S. cerevisiae bub3 mutant strain, at 50.0 µM
The panel holds about 79,000 compounds, 15% with a hit somewhere; the sample as a whole holds those more often. The source made the active and inactive calls. Rule as the data show it: active = growth inhibition above about 70%; inactive = the rest.
Outcomes: label 1 for active, label 0 for inactive

INSERT INTO assay_data (molecule, cat) VALUES
  ('c1cnc2c(Oc3nc(Oc4cccc5cccnc45)nc(Oc4cccc5cccnc45)n3)cccc2c1', 'label 1'),
  ('CC(C)(C)[Si](C)(C)OCC1OC(n2cc(I)c(N)nc2=O)C(O[Si](C)(C)C(C)(C)C)C1O[Si](C)(C)C(C)(C)C (stereo not drawn)', 'label 0'),
  ('CN(C)C(=S)N1C(=S)N(c2ccccc2)C(=Nc2ccccc2)C1=Nc1ccccc1', 'label 0');

====

Assay: NCI Yeast Anticancer Drug Screen. Data for the bub3 strain (AID 167)
Conditions: S. cerevisiae bub3 mutant strain, at 50.0 µM, active compounds read high
About 79,000 compounds went through this panel and 15% of them were active in at least one assay; those are over-represented in the sample as a whole.
testReadout: growth inhibition (%)

INSERT INTO results (compound, testreadout, assayresult) VALUES
  ('CC(=O)Oc1ccc(/C=C/c2ccncc2)cc1', 'growth inhibition', 84.7),
  ('Nc1ccc2nc(Nc3ccc(Cl)c(Cl)c3)cnc2c1', 'growth inhibition', 83.8),
  ('[Cl-].[La+3].[O-]/N=C(\c1ccccc1)c1ccccn1.[O-]/N=C(\c1ccccc1)c1ccccn1.[O-]/N=C(\c1ccccc1)c1ccccn1', 'growth inhibition', 67.3),
  ('O/N=C1/C(=C/c2ccc3c(c2)OCO3)CCCC1C(NO)c1ccc2c(c1)OCO2 (centres undefined)', 'growth inhibition', 38.4),
  ('CC(C)(C)CC(C)(C)N[P+](NC(C)(C)CC(C)(C)C)(NC(C)(C)CC(C)(C)C)NC(C)(C)CC(C)(C)C', 'growth inhibition', 90.5),
  ('Nc1ccc2nc(Nc3ccc(F)cc3)cnc2c1', 'growth inhibition', 60),
  ('Cc1cc(O)c(C=NC(=S)C(N)=S)c(=O)o1', 'growth inhibition', -26.5),
  ('O=C(O)CC(C(=O)O)C(c1cccc2ccccc12)c1cccc2ccc3ccccc3c12 (centres undefined)', 'growth inhibition', 98.7),
  ('CCOC(=O)/C=C(\NC1CC(OC2C[C@](O)(C(C)=O)Cc3c(O)c4c(c(O)c32)C(=O)c2c(OC)cccc2C4=O)OC(C)C1O)C(=O)OCC (some centres undefined)', 'growth inhibition', 87.5),
  ('C/C(CCC1CCc2ccccc2C1)=N\NC(N)=O (centres undefined)', 'growth inhibition', 11.4),
  ('CCCCCCCCCCCCNCc1ccc(Cl)c(Cl)c1', 'growth inhibition', 97),
  ('CCN(CC)Cc1cc(Nc2c3ccccc3nc3c4ccccc4n(C)c23)ccc1O', 'growth inhibition', 55.3),
  ('CCc1c(-c2ccccc2)c(CN2CCCCC2)c2ccccn12', 'growth inhibition', -5.5),
  ('O=C1/C(=C/c2ccc(Cl)c(Cl)c2)CN(C(=O)CCN2CCOCC2)C/C1=C\c1ccc(Cl)c(Cl)c1', 'growth inhibition', 89),
  ('CC(C)c1ccc(C2C3=C(N=C4SCC(=O)N42)C(=O)c2ccccc23)cc1 (centres undefined)', 'growth inhibition', 80.3),
  ('C=CCNC(=O)NC(=O)CSC1=NNC2(C(=O)N1)c1ccccc1-c1ccccc12', 'growth inhibition', 86.5),
  ('Cc1cc(Cl)cc2c1NC(=O)C2(O)C/C(=N/NC(=O)CC#N)c1cccc([N+](=O)[O-])c1 (centres undefined)', 'growth inhibition', 15.4),
  ('C/C(=N\NC(=S)NC(C)(C)C)c1ccccn1', 'growth inhibition', 90.2),
  ('O=C(CBr)C1(Br)CCN(Cc2ccccc2)CC1', 'growth inhibition', 99.5),
  ('CCn1c2ccc([N+](=O)[O-])cc2c2c([N+](=O)[O-])c(-n3cccc3)ccc21', 'growth inhibition', 10.9),
  ('Clc1ccc(CNc2ccc(Cl)c(Cl)c2)cc1', 'growth inhibition', 97.5),
  ('ClC1=C(Cl)C(Cl)(C(Cl)(Cl)Cl)C(Cl)=C1Cl', 'growth inhibition', 99.7),
  ('CN1C(=O)c2cccc3c([N+](=O)[O-])ccc(c23)C1=O', 'growth inhibition', 10.2),
  ('O=[N+]([O-])/C=C/c1cc2c(ccc3ccccc32)[nH]1', 'growth inhibition', 90.7),
  ('O=C1CSC2(CCN(CCCN3c4ccccc4Sc4ccc(Cl)cc43)CC2)N1', 'growth inhibition', 97.5),
  ('Cc1c(-c2ccccc2)ccnc1/C=N/NC(=S)Nc1ccccc1', 'growth inhibition', 95.7),
  ('O=C(COc1ccc(Cl)c(Cl)c1)Nc1ccc[n+](Cc2ccc(Cl)c(Cl)c2)c1', 'growth inhibition', 99.3),
  ('c1ccc([Si](C[CH2][Sn]([c]2ccccc2)([c]2ccccc2)[c]2ccccc2)(c2ccccc2)c2ccc([Si](C[CH2][Sn]([c]3ccccc3)([c]3ccccc3)[c]3ccccc3)(c3ccccc3)c3ccccc3)cc2)cc1', 'growth inhibition', 97.6),
  ('CN(C)C1CCC2C3CC=C4CC(OC=O)CCC4(C)C3CCC21C (centres undefined)', 'growth inhibition', 48.8);

====

Assay: NCI Yeast Anticancer Drug Screen. Data for the mec2-1 strain (AID 157)
Conditions: S. cerevisiae mec2-1 strain, at 5.0 µM (retest, dose inferred, filed as 0.5), active compounds read high
About 79,000 compounds went through this panel and 15% of them were active in at least one assay; those are over-represented in the sample as a whole.
testReadout: growth inhibition (%)

INSERT INTO results (compound, testreadout, assayresult) VALUES
  ('CCOC(=O)c1ccc2c3c([nH]c2c1C)-c1ccccc1CC3', 'growth inhibition', -7),
  ('CN(C)C1CCC2C3CCC4=CC(=O)CCC4(C)C3CCC21C (centres undefined)', 'growth inhibition', 17),
  ('CCN1CCC(O)(/C=C/c2ccccc2)C(C(=O)/C=C/c2ccccc2)C1 (centres undefined)', 'growth inhibition', 6),
  ('CC1(c2ccc(Cl)cc2)OC(=O)c2c1ccc1ccccc21 (centres undefined)', 'growth inhibition', -1),
  ('NS(=O)(=O)c1ccc(N=Cc2c3ccccc3nc3cc(Cl)ccc23)cc1', 'growth inhibition', 12),
  ('O=C1CCCC1C(=O)OC1CCCC1 (centres undefined)', 'growth inhibition', 13),
  ('CC(=O)Oc1ccc(C)cc1C(C)(C)C', 'growth inhibition', 1),
  ('CC(C)(C)OC(=O)CSC#N', 'growth inhibition', 16),
  ('O=C(/C=C\c1ccccc1)/C=C/c1ccccc1', 'growth inhibition', -2),
  ('O=c1[nH]c(=O)c2cc([N+](=O)[O-])cc([N+](=O)[O-])c2[nH]1', 'growth inhibition', 6),
  ('CC(=O)N(C)c1cc(NCc2ccccc2)ccc1OCc1ccccc1', 'growth inhibition', 12),
  ('COC1=CC(=O)c2ncc(Cl)cc2C1=O', 'growth inhibition', -2),
  ('CN(C)CCCN1c2cc(Cl)ccc2Sc2ccc3ccccc3c21', 'growth inhibition', 3),
  ('COC1CC2CCC(C)[C@](O)(O2)C(=O)C(=O)N2CCCCC2C(=O)OC(C(C)CC2CCC(O)C(OC)C2)CC(=O)C(C)C=C(C)C(OC(=O)CCCN2CCCC2)C(OC)C(=O)C(C)CC(C)/C=C/C=C/C=C\1C (some centres undefined)', 'growth inhibition', 98);

====

Catalogue of growth inhibition readings, one per entry.
Assay: NCI Yeast Anticancer Drug Screen. Data for the mlh1 rad18 strain (AID 175)
Conditions: S. cerevisiae mlh1 rad18 strain growth inhibition; at 5.0 µM (retest, dose inferred, filed as 0.5); active compounds read high
About 79,000 compounds went through this panel and 15% of them were active in at least one assay; those are over-represented in the sample as a whole.
testReadout: growth inhibition (%)

INSERT INTO results (molecule, assayresult) VALUES
  ('Nc1ccc2c(SCc3ccc([N+](=O)[O-])cc3)c3ccccc3nc2c1', 96),
  ('O=C(O)CSc1nnc2c3ccccc3c3ccccc3c2n1', 9),
  ('CCOC(=O)CN1CCCC(C(=O)CC2(O)C3(Cl)C4(Cl)C5(Cl)C(Cl)(Cl)C6(Cl)C4(Cl)C2(Cl)C6(Cl)C53Cl)C1 (stereo not drawn)', 87);

====

Test: NCI Yeast Anticancer Drug Screen. Data for the rad50 strain (AID 155);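 also: 0% = growth of vehicle-only cultures of the same strain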
Conditions: S. cerevisiae rad50 strain growth inhibition; at 5.0 µM (retest, dose inferred, filed as 0.5); active compounds read high
The panel holds about 79,000 compounds, 15% with a hit somewhere; the sample as a whole holds those more often.
testReadout: growth inhibition (%)

INSERT INTO results (compound, testreadout, unittag, assayresult) VALUES
  ('CN(C)c1ccc(C(c2ccc(N(C)C)cc2)c2ccc3c(c2)OCO3)cc1', 'growth inhibition', '%', 98),
  ('Cc1c(C)c(NC(=O)/C=C/C(=O)O)c(C)c(C)c1NC(=O)/C=C\C(=O)O', 'growth inhibition', '%', -14),
  ('CCCCCC(CN(C)C)C(=O)/C=C/c1ccc(Cl)cc1 (stereo unspecified)', 'growth inhibition', '%', 21),
  ('O=C(/C=C(/c1ccccc1)P(=O)(c1ccccc1)c1ccccc1)c1ccccc1', 'growth inhibition', '%', -2),
  ('CCCNC(=O)C(=O)NNc1ccccc1', 'growth inhibition', '%', 7),
  ('CCCCCCCCCCCCCCCC(=O)N1CC[N+](C)(CC2=CC3(Cl)C(Cl)=C(Cl)C2(Cl)C3(Cl)Cl)CC1 (stereo unspecified)', 'growth inhibition', '%', 99),
  ('COCCOC1=C(Cl)C(=O)c2c(O)ccc(O)c2C1=O', 'growth inhibition', '%', 97),
  ('CCC(=O)c1cc2ccccc2c2ccccc12', 'growth inhibition', '%', 4),
  ('Cn1c(=O)nc2n(-c3ccc(Cl)cc3)c3cc(Cl)ccc3nc-2c1=O', 'growth inhibition', '%', 7),
  ('CC(C)C1(Cl)CCC2C3(C)CCCC(C)(C(=O)O)C3CC(Cl)C2(Cl)C1Cl (stereo unspecified)', 'growth inhibition', '%', 3),
  ('O=C(COC(=O)c1ccc(O)cc1)c1ccc(-c2ccccc2)cc1', 'growth inhibition', '%', -16),
  ('CC(=O)c1c(O)c2ccc(Cl)cc2[nH]c1=O', 'growth inhibition', '%', 73),
  ('Cc1cc(C)nc(CCSS(=O)(=O)O)c1', 'growth inhibition', '%', -4),
  ('Cc1ccc(S(=O)(=O)CC2(Br)Cc3ccccc3C2=O)cc1 (stereo unspecified)', 'growth inhibition', '%', 79),
  ('Cc1cc(N/N=C/c2ccc([N+](=O)[O-])o2)c2cc3c(cc2n1)OCO3', 'growth inhibition', '%', 23),
  ('Cc1cc(O)cc(C)c1[N+](=O)[O-]', 'growth inhibition', '%', 5),
  ('CC/C(=C(\CC)c1ccc(OCCN2CCOCC2)cc1)c1ccc(OCCN2CCOCC2)cc1', 'growth inhibition', '%', 47),
  ('Cc1cc(NCCCCCCCCCC[n+]2c(C)cc(N)c3ccccc32)c2ccccc2n1', 'growth inhibition', '%', 71),
  ('Cc1c(Cl)cc2[nH]c(C(F)(F)F)nc2c1Cl', 'growth inhibition', '%', 3),
  ('O=C(N=Nc1c(O)[nH]c2ccccc12)C(O)(c1ccccc1)c1ccccc1', 'growth inhibition', '%', 18),
  ('Cc1[nH]c2c(C)cccc2c1C1Cc2ccccc2N1 (stereo unspecified)', 'growth inhibition', '%', 3),
  ('CCCC(=O)Oc1ccc(OCc2ccccc2)cc1', 'growth inhibition', '%', -1),
  ('COc1cc2c(c(OC)c1OC)-c1ccc(O)c(=O)cc1C(N=Cc1ccccc1)CC2 (stereo unspecified)', 'growth inhibition', '%', -5),
  ('c1ccc(NN=C(c2ccccc2)c2ccccc2)cc1', 'growth inhibition', '%', -2),
  ('O=c1c2cnccc2cc2c3ccccc3ccn12', 'growth inhibition', '%', 47),
  ('CSc1ncc2c(n1)-c1ccccc1OC2NC1CC1 (stereo unspecified)', 'growth inhibition', '%', 24);
